# System: DNA
# test-details: Binding affinity to calf […] DNA assessed as thermal stability in cacodylate buffer containing 0.1 M NaCl at 12 uM
# Format: nucleic-acid assay
Below, each entry is listed with its recorded ΔTm.
// note: answer is a bare numeric in °C

compound: N=C(N)NCc1ccccc1
ΔTm [°C]: 0

compound: CCBr
ΔTm [°C]: 5

compound: N=C(N)NCCCCNCc1ccc2ccc3cccc4ccc1c2c34
ΔTm [°C]: 12

compound: NCc1c2ccccc2cc2ccccc12
ΔTm [°C]: 1

compound: NCCCCNCc1ccc2ccc3cccc4ccc1c2c34
ΔTm [°C]: 10

Read off the recorded ΔTm for N=C(N)NCc1cccs1
0

Read off the recorded ΔTm for N=C(N)NCCCCNCc1c2ccccc2cc2ccccc12
9

Read off the recorded ΔTm for N=C(N)NCc1ccc2ccc3cccc4ccc1c2c34
6

Read off the recorded ΔTm for NCc1cccs1
0
